Value source: patent US8039634B2

Test system: HDAC
TEST: Inhibition of HDAC activity (fluorometric, HeLa nuclear extract)
Type: biochemical, human
PROTOCOL CONDITIONS: 30 min room temperature
pIC50: −log10 of the molar value.
MEASURED METRIC: pIC50

For orientation, consider the following solved cases.
O=C(CCCCCCc1nc(-c2ccccc2)c(-c2ccc(O)cc2)o1)NO :: 8.77
COc1ccc(-c2nc(CCCCCCC(=O)NO)oc2-c2ccc(OC)cc2)cc1 :: 9.33

(I) COc1ccc(-c2nc(CCCCCCC(=O)NO)oc2-c2cccnc2)cc1
(II) COc1cccc(-c2oc(CCCCCCC(=O)NO)nc2-c2ccccc2)c1
**Q:** Look at I and II . Which one has the lower recorded pIC50 number? State the label of the item chosen.
**A:** I
(I: 7.84, II: 8.80)
